tgt: alanyl aminopeptidases (APN) (Homo sapiens)
Sequence (P15144 whole entry, species assumed): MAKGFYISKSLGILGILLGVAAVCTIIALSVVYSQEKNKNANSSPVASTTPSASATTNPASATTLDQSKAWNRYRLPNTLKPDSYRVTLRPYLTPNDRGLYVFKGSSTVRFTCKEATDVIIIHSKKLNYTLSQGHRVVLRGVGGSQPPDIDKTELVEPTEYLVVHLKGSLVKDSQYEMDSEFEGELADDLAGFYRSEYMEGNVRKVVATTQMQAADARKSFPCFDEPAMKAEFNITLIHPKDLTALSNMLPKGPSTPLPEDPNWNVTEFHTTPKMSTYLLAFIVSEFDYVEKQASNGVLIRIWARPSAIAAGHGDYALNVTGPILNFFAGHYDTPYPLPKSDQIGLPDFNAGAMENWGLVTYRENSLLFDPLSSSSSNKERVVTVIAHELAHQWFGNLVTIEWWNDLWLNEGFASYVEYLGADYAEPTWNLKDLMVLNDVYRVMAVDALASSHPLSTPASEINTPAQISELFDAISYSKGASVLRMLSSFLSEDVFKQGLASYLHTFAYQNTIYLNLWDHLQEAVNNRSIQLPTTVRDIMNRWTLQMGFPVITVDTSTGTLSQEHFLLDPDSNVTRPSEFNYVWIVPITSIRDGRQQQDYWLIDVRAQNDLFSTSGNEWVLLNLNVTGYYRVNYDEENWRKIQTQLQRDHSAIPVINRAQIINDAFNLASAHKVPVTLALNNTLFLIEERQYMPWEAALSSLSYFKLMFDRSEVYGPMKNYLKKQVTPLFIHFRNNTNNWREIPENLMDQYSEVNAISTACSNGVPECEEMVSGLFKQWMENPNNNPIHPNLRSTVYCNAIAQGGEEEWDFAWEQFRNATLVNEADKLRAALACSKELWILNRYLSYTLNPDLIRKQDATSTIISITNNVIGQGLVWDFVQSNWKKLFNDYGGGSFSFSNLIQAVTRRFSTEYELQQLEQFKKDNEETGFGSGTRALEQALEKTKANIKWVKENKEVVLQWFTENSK
assay_procedure: Inhibition of alanyl aminopeptidase enzymatic activity, fluorogenic substrate (Ala)2-rhodamine 110
Assay type: biochemical
protocol_conditions: Table 8, unstarred values; read-out: IC50APN
endpoint_label: IC50 (µM)
The reply should contain only the number, in µM.

// below: answered compounds
O=C1C(Cc2ccc3[nH]ccc3c2)NC(=S)N1c1ccccc1 (stereo not drawn) [A8.016]
14.9
O=C1C(Cc2ccc(O)cc2)NC(=S)N1C1CCCCC1 (stereo not drawn) [A8.019]
21.3
COc1cc(C)[n+](OC(=O)N(C)C)c(C)c1 [A8.030]
42.4
CCc1cccc(CC)c1NC(=S)N/N=C1\C(=O)N(CN2CC(C)CC(C)C2)c2ccccc21 (stereo not drawn) [A8.004]
6.7
CC(C)(C)OC(=O)N/N=C\C=C\c1ccco1 [A8.008]
10.8

// IC50 (alanyl aminopeptidases (APN) (Homo sapiens)) for CSCCC1NC(=S)N(Cc2ccccc2)C1=O (stereo not drawn) [A8.012] = 14.1

For C/C(Cn1nnc([N+](=O)[O-])n1)=N/NC(=O)COc1ccccc1[N+](=O)[O-] [A8.002] on alanyl aminopeptidases (APN) (Homo sapiens), measured IC50 was 3.4

Test item CC1=NC(N)=NC(C)(C)N1c1c(Cl)cccc1Cl [A8.034] ; alanyl aminopeptidases (APN) (Homo sapiens); reported IC50 was 59.8

// IC50 (alanyl aminopeptidases (APN) (Homo sapiens)) for NC(=S)N/N=C/c1ccco1 [A8.032] = 50

Entry O=C1C(Cc2ccc(O)cc2)NC(=S)N1c1ccccc1 (stereo not drawn) [A8.035] , alanyl aminopeptidases (APN) (Homo sapiens) data, IC50 value: 66.6

Entry CCOC(=O)CCCCC(=O)c1c(C)n(C(=O)c2ccc(N3C(=O)CCC3=O)cc2)c(=O)n1C(=O)c1ccc(N2C(=O)CCC2=O)cc1 [A8.017] , alanyl aminopeptidases (APN) (Homo sapiens) data, IC50 value: 15.6
